Biological target: wildtype feline IL-31 (Feline_IL31_wildtype) (feline)
Sequence (chain, as listed by the source limits assumed, form in doubt): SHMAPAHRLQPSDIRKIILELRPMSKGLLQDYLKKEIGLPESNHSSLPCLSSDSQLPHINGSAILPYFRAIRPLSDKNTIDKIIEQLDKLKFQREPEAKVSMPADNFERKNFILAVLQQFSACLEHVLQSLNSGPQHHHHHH
Assay: SPR (Biacore), immobilised IL-31, 1:1 fit
Output T for koff not less than 0.0009 s⁻¹; output F otherwise.

>>> assignedlabel("Feline 15H05 1.2 (antibody, V domains shown) VH: QVLLVQSGAEVRTPGASVKIFCKASGYSFTSYTIHWLRQAPAQGLEWMGNINPTSGYTENNQRFKDRLTLTADTSTNTAYMELSSLRSADTAMYYCARWGFKYDGEWSFDVWGAGTTVTVSS VL: EITMTQSPGSLAGSPGQQVTMNCRASQGISIWLSWYQQKPGQHPKLLIYKASNLHIGVPDRFSGSGSGTDFTLTISNLQAEDVASYYCLQSQTYPLTFGGGTKLEIK")
"T"
>>> assignedlabel("Feline 15H05 1.1 Y49N (antibody, V domains shown) VH: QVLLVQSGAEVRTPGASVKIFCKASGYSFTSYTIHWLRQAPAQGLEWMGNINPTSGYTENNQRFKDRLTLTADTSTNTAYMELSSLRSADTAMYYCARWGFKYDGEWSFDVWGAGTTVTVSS VL: EIQMTQSPSSLSASPGDRVTITCRASQGISIWLSWYQQKPGKVPKLLINKASNLHIGVPSRFSGSGSGTDFTLTISSLEPEDAATYYCLQSQTYPLTFGGGTKLEIK")
"T"
>>> assignedlabel("Feline 15H05 VH2 mouse VL (antibody, V domains shown) VH: QVLLVQSGAEVRTPGASVKIFCKASGYGFTSYTIHWVRQSPAQGLEWMGNINPTSGYTENNQRFKDRLTLTADTSTNTAYMELSSLRSADTAMYYCARWGFKYDGEWSFDVWGAGTTVTVSS VL: DIQMNQSPSSLSASLGDTITVTCRASQGISIWLSWYQQKPGNIPKVLINKASNLHIGVPPRFSGSGSGTHFTLTITSLQPEDIATYYCLQSQTYPLTFGGGTKLEIN")
"F"
>>> assignedlabel("Feline 15H05 1.1 K42N_V43I (antibody, V domains shown) VH: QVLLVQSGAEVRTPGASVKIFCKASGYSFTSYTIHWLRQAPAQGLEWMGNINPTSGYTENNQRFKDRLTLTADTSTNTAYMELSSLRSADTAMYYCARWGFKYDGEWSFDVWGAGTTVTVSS VL: EIQMTQSPSSLSASPGDRVTITCRASQGISIWLSWYQQKPGNIPKLLIYKASNLHIGVPSRFSGSGSGTDFTLTISSLEPEDAATYYCLQSQTYPLTFGGGTKLEIK")
"T"
>>> assignedlabel("Feline 15H05 1.1 FW2 (antibody, V domains shown) VH: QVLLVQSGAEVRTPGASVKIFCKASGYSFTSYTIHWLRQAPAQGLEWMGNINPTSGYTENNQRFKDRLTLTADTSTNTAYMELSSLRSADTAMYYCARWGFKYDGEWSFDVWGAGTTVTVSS VL: EIQMTQSPSSLSASPGDRVTITCRASQGISIWLSWYQQKPGNIPKVLINKASNLHIGVPSRFSGSGSGTDFTLTISSLEPEDAATYYCLQSQTYPLTFGGGTKLEIK")
"F"
>>> assignedlabel("Feline 15H05 3.1 (antibody, V domains shown) VH: QVLLVQSGAEVRKPGASVKIFCKASGYSFTSYTIHWLRQAPEQGLEWMGNINPTSGYTENNQRFKDRLTLTADTSTNTAYMELSSLRSADTAMYYCARWGFKYDGEWSFDVWGAGTTVTVSS VL: EIQMTQSPSSLSASPGDRVTITCRASQGISIWLSWYQQKPGKVPKLLIYKASNLHIGVPSRFSGSGSGTDFTLTISSLEPEDAATYYCLQSQTYPLTFGGGTKLEIK")
"T"
>>> assignedlabel("Feline 15H05 1.1 FW3 (antibody, V domains shown) VH: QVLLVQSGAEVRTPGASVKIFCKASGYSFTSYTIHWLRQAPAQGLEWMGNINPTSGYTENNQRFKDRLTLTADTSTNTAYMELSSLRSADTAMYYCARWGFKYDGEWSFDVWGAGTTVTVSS VL: EIQMTQSPSSLSASPGDRVTITCRASQGISIWLSWYQQKPGKVPKLLIYKASNLHIGVPPRFSGSGSGTHFTLTITSLQPEDIATYYCLQSQTYPLTFGGGTKLEIK")
"F"
>>> assignedlabel("Feline 15H05 2.1 (antibody, V domains shown) VH: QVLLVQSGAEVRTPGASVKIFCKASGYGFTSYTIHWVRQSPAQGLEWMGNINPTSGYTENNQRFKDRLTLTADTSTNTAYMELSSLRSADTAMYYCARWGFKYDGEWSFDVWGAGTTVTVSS VL: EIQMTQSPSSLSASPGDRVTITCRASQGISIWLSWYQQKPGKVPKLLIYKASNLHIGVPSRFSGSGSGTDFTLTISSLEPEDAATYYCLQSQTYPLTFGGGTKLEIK")
"T"
>>> assignedlabel("Feline 15H05 1.1 FW1_3 (antibody, V domains shown) VH: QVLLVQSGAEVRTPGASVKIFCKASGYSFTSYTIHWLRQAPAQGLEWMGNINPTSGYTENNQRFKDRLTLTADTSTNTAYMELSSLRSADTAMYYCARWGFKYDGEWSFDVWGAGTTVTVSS VL: DIQMNQSPSSLSASLGDTITVTCRASQGISIWLSWYQQKPGKVPKLLIYKASNLHIGVPPRFSGSGSGTHFTLTITSLQPEDIATYYCLQSQTYPLTFGGGTKLEIK")
"F"

Data origin, for the record: patent US20190282704A1
